target: HIV-1 Env of pseudovirus isolate MGRM-G-028 (subtype G) (HIV-1); test: cell-based or functional assay
Parameter: IC50. Scope: all listed entries.
Report only the number, with the unit µg/mL understood.

Use these answered entries as a reference point.
**Q:** In one line, give reported IC50 of the entry PGT-127 (antibody, V domains shown) VH: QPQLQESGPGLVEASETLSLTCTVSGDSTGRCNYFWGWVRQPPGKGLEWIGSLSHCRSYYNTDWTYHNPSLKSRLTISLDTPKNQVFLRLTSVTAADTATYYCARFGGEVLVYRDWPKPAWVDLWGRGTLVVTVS VL: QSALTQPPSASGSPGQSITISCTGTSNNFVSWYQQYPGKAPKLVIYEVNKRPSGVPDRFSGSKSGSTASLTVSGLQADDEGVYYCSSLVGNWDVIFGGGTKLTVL .
**A:** 0.032

**Q:** In one line, give reported IC50 of the entry PGT-128 (antibody, V domains shown) VH: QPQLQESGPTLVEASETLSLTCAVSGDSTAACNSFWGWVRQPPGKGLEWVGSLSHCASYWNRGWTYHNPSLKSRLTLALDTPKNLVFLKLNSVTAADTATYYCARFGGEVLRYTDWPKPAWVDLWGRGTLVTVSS VL: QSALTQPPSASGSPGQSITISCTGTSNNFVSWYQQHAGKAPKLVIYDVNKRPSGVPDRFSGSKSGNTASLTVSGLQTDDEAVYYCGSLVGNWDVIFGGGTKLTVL .
**A:** 0.008

**Q:** In one line, give reported IC50 of the entry PGT-125 (antibody, V domains shown) VH: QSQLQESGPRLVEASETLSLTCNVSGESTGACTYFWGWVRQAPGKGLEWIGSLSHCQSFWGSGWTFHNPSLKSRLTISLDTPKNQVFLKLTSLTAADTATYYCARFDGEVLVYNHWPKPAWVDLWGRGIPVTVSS VL: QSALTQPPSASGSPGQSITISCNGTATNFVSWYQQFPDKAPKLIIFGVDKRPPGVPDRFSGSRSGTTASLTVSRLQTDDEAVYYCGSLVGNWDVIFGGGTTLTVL .
**A:** 0.012

Let us examine a further case.
**Q:** In one line, give reported IC50 of the entry PGT-123 (antibody, V domains shown) VH: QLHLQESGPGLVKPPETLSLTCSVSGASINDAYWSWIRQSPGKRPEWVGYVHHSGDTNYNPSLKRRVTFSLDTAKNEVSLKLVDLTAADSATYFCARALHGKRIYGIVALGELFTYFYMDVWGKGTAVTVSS VL: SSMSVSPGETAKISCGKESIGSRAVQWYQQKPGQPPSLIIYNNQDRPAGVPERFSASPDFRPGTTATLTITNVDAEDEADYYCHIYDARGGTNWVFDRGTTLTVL .
**A:** 0.008
